Just for reference, PubChem BioAssay (NCI) is where these values come from.

test system: HOP-92 NSCLC; experiment: NCI-60 one-dose screen, 48 h (100 = growth as untreated, 0 = no growth, -100 = all killed); settings: 10 µM unless noted
The panel holds about 83,000 compounds, 20% with a hit somewhere; the sample as a whole holds those more often. Active and inactive are the calls of the source. Rule for the calls: active = growth percent below 10; inactive = the rest.
Assay endpoint: growth

Please look at this molecule and report its growth: COc1cc(-c2ccc[nH]2)[nH]c1/C=C1\N=C(C)C(CC(=O)OCC(C)(C)C)=C1C
-51.3% (active)

Please look at this molecule and report its growth: O=C(CCCCCCCC(=O)N1CCCCC1)N1CCCCC1
98.8% (inactive)

Please look at this molecule and report its growth: Cc1cccc(NC(=O)N/C(N)=N/c2nc3ccccc3s2)c1
62.7% (inactive)

Please look at this molecule and report its growth: Cc1cccc(NC(=O)Cn2cc(CN3CCN(c4ccnc5cc(Cl)ccc45)CC3)nn2)c1
56.3% (inactive)

Please look at this molecule and report its growth: O=C(c1ccc(Br)cc1)C(Br)C(c1ccc(Cl)cc1)C(c1ccccc1)[N+](=O)[O-] (stereo not given)
107% (inactive)

Please look at this molecule and report its growth: O=C1C=CC2(O)OC/C(=C\c3ccccc3)C(O)=C2C1=O (stereo not given)
-3.3% (active)

Please look at this molecule and report its growth: COc1cc(/C=C/C(=O)c2cc(OC)c(OC)c(OC)c2)ccc1Oc1nc2c(c(=O)n(C)c(=O)n2C)n1C
3.39% (active)

Please look at this molecule and report its growth: COC(=O)c1ccc2c(c1)c1c(C)c3cnccc3c(C)c1n2C
-16.6% (active)

Please look at this molecule and report its growth: CCN(CC)c1ccc(-c2cc(-c3cc(OC)c(OC)c(OC)c3)nc(N3CCC(O)CC3)c2C#N)cc1
-17.6% (active)

Please look at this molecule and report its growth: O=Nc1ccc(NC(=O)Nc2ccc([N+](=O)[O-])cc2)cc1
56.5% (inactive)

###

system: A498 renal; test: NCI-60 one-dose screen, 48 h (100 = growth as untreated, 0 = no growth, -100 = all killed); conditions: 10 µM unless noted
The panel holds about 83,000 compounds, 20% with a hit somewhere; the sample as a whole holds those more often.
For each of the compounds below, state its growth.
Give the value in % but do not write % after it.

Please look at this compound and report its growth: C/C(=C(\c1ccc(OCCN2CCCCCC2)cc1)c1ccc(OC(=O)c2ccccc2)cc1)c1ccc(Cl)cc1
86.9

Please look at this compound and report its growth: Cc1ccc(NC(=O)c2sc3nc(C)c(C(O)c4ccccc4)cc3c2N)cc1 (stereo not drawn)
-8.03

Please look at this compound and report its growth: C[C@@H]1NC(=O)[C@H](Cc2ccccc2)N(Cc2cccnc2)C1=O
63.5

Please look at this compound and report its growth: COc1ccc(C(=O)Nc2ncc(Cc3ccc(Cl)cc3)s2)cc1
-18.5

Please look at this compound and report its growth: Cc1cc(N2CCN(CC(=O)Nc3ccc4c(ccn4Cc4ccccc4)c3)CC2)nc(N2CCOCC2)n1
22.9

Please look at this compound and report its growth: OC1CSSC1Cn1cnc2c(Nc3ccc(OCc4cccc(F)c4)c(Cl)c3)ncnc21 (stereo not drawn)
69.6

Please look at this compound and report its growth: Cn1c(C#N)ccc1-c1ccc(F)c(NC(=O)c2ccc(F)cc2)c1
73.3

Please look at this compound and report its growth: COC1C(O)CC(OC2CC(OC3CC(O[C@@H]4C(=O)c5c(cc6cc(OC7CC(OC8CC(O)C(O)C(C)O8)C(O)C(C)O7)c(C)c(O)c6c5O)CC4[C@H](OC)C(=O)C(C)=O)OC(C)C3O)OC(C)C2O)OC1C (stereo partly drawn)
-44.1

###

tested on: U251 CNS; experiment: NCI-60 one-dose screen, 48 h (100 = growth as untreated, 0 = no growth, -100 = all killed); conditions: 10 µM unless noted
About 83,000 compounds went through this panel and 20% of them were active in at least one assay; those are over-represented in the sample as a whole.
Binning of growth into classes: interval 1: < 20%; interval 2: ≥ 20% and < 70%; interval 3: ≥ 70%

# bin lookup: classify C=C(C)[C@@H]1CC[C@]2(COC3CCCCO3)CC[C@]3(C)[C@H](CC[C@@H]4[C@@]5(C)C=C(C=O)C(=O)C(C)(C)[C@@H]5CC[C@]43C)[C@@H]12 (stereo partly drawn) by its growth
interval 1

# bin lookup: classify CCCCCCCCCCCCCCCCCCOc1ccccc1CC(=O)NCC[N+](C)(C)C by its growth
interval 1

# bin lookup: classify CS(=O)(=O)Nc1cc(-c2ccc3ncnc(Nc4ccc5c(cnn5Cc5ccncc5)c4)c3c2)cnc1Cl by its growth
interval 2

# bin lookup: classify C=C1C(=O)O[C@H]2[C@H]1CC/C(COC(=O)NCc1ccc(Cn3c(=O)sn(-c4ccc(I)cc4)c3=O)cc1)=C\CC[C@@]1(C)O[C@@H]21 by its growth
interval 3

# bin lookup: classify O=C(Nc1ccc(Nc2ccncc2)cc1)c1ccc(Nc2ccnc3ccc([N+](=O)[O-])cc23)cc1 by its growth
interval 3

# bin lookup: classify Cc1oc(-c2ccc(Cl)cc2)nc1C1=NN(C(=O)c2ccncc2)C(c2ccccc2)C1 (stereo not drawn) by its growth
interval 3

# bin lookup: classify Cc1ccc2c(c1)=C/C(=C\c1cc(-c3ccccc3)[nH]c1O)C(=O)N=2 by its growth
interval 2

# bin lookup: classify COCCn1cc(-c2csc(-c3c[nH]c4ccccc34)n2)c2cccnc21 by its growth
interval 2

# bin lookup: classify N#Cc1nn(-c2cc(=O)[nH]c3ccc(Br)cc23)c(N)c1C#N by its growth
interval 3

# bin lookup: classify O=C(Nc1cccnc1Nc1ccccc1)c1cn(Cc2cccc(Oc3ccccc3)c2)nn1 by its growth
interval 2

# bin lookup: classify Cc1cc2oc(/C=C/c3ccccc3)cc(=O)c2c(C)c1Cl by its growth
interval 3

# bin lookup: classify COc1ccc(-c2cc(C(=O)N3N=C(c4ccc(N)cc4)CC3c3ccc(Cl)cc3)c3ccccc3n2)cc1 (stereo not drawn) by its growth
interval 1

# bin lookup: classify CS(=O)(=O)Nc1cc(-c2ccc3ncnc(Nc4ccc(OCc5ccccn5)c(Cl)c4)c3c2)cnc1Cl by its growth
interval 1

###

Test system: NCI-H23 lung
Test: NCI-60 one-dose screen, 48 h
Settings: 10 µM unless noted
Method: Growth inhibition of the NCI-H23 human Non-Small Cell Lung tumor cell line is measured as a screen for anti-cancer activity. Cells are grown in 96 well plates and exposed to the test compound for 48 hours. Compounds are tested at a single concentration, which is 10^-5 M for most compounds. The reported endpoint is percent growth (GI% or GIPRCNT), where numbers from 0 - 100% represent growth inhibition, and numbers from -100% - 0 represent cell death. […]
Compounds without any hit were thinned out: in the full panel of roughly 83,000, 20% have a hit. Activity calls are given as the source filed them. How the source made its calls: active means growth percent below 10; inactive means the rest.
Pick one: Y (active), N (inactive)

Query: recorded result category for CCN(CC)C(=O)CC1=C(C)/C(=C/c2[nH]c(-c3ccc[nH]3)cc2OC)N=C1C in this test
N

Query: recorded result category for CCCCCc1ccc(S(=O)(=O)Nc2cc(-c3csc(NC(C)=O)n3)ccc2N2CCN(C)CC2)cc1 in this test
N

Query: recorded result category for C/C(=C(\c1ccc(OCCN2CCCCCC2)cc1)c1ccc(OC(=O)c2ccccc2)cc1)c1ccc(Cl)cc1 in this test
N

Query: recorded result category for CN1CCN(c2ccc(NC3=CC(=O)c4ncncc4C3=O)cc2)CC1 in this test
Y

Query: recorded result category for O=c1oc2c(cc1-c1ccccc1)c[n+]([O-])c1ccccc21 in this test
N

Query: recorded result category for CC1SC(c2ccccc2O)N(NC(=O)CCC(=O)c2nc3ncccc3[nH]2)C1=O (stereo unspecified) in this test
N

Query: recorded result category for CCn1cc(C(=O)N/N=C/c2ccccc2)c(=O)c2cc(F)c(N3CCNC(C)C3)c(F)c21 (stereo unspecified) in this test
N

Query: recorded result category for Oc1ccc(-c2nc3ccc4[nH]ncc4c3c3c2CCCC3)c(F)c1 in this test
N

Query: recorded result category for COc1ccc2c(c1)oc1c(C)c3c(c(C)c12)C(=O)N(CCOS(C)(=O)=O)C3=O in this test
N

Query: recorded result category for O=C(NNc1nc2cc(F)ccc2n2c(CN3CCOCC3)ccc12)c1ccccc1 in this test
N

Query: recorded result category for Nc1nc(N(Cc2ccccc2)c2ccccc2)c2cn[nH]c2n1 in this test
N

Query: recorded result category for O=c1oc2c(cnc3ccccc32)cc1-c1cccc(Cl)c1 in this test
N

Query: recorded result category for O=C(c1c[nH]c2ccccc12)c1n[nH]c(=S)n1-c1ccc([N+](=O)[O-])cc1 in this test
N

Query: recorded result category for Brc1ccc(Nc2nc(Nc3cnc4ccccc4c3)c3[nH]cnc3n2)cc1 in this test
N

Query: recorded result category for C=C1SC(=Nc2ccccc2Cl)N(C(=O)c2sc3ccccc3c2Cl)C1(C)C in this test
N

Query: recorded result category for O=C(NCCN1CCOCC1)OCc1ccc2c(Cl)cc(Cl)c(O)c2n1 in this test
N

Query: recorded result category for O=c1ccc2ccc(OCCN3CCCCC3)cc2o1 in this test
N

Query: recorded result category for COC(=O)/C=C1/SC(=NCc2ccccc2)N(CCc2c[nH]c3ccccc23)C1=O in this test
N

Query: recorded result category for Cc1cc(C(=O)CCCC(=O)c2cc(C)c(O)c(C)c2)cc(C)c1O in this test
N

Query: recorded result category for Nc1c(Br)cc2c(c1Br)Cc1cc([N+](=O)[O-])ccc1-2 in this test
N

Query: recorded result category for CC1(C)N=C(N)N=C(N)N1c1ccc(S(=O)(=O)Nc2nccs2)cc1 in this test
N
